Each recorded value in this set is attributed to patent EP0456514A1.

# experimental-system: Adenosine deaminase (Bos taurus, UniProt P56658)
# Construct: Adenosine deaminase ( Calf inlestine, 400 U/ml glycerin, Boehringer 102091 ); purchased Boehringer 102091; host or cells: calf intestine (tissue-derived enzyme)
# Sequence (P56658 whole entry): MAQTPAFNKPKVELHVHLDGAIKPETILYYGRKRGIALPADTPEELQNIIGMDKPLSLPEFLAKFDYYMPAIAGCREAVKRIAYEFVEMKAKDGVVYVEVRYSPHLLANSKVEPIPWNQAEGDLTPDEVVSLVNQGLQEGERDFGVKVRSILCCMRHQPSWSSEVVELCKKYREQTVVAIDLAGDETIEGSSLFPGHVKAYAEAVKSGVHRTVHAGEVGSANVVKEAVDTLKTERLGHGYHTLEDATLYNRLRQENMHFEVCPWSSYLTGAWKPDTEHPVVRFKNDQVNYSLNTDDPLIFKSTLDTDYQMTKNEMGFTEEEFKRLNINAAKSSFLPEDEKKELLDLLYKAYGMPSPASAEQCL
# test: Resistance to adenosine deaminase (remaining sample measured by HPLC)
# Assay type: in vitro ADME, Calf
# particulars: bovine; 30min.; 0.5 mM test sample, adenosine deaminase, 0.05 M Tris-HCl buffer (pH 7.2), 25 °C; read-out: Remaining ratio (%) 30min.
property: remaining at 0.5 h, 500 µM (%)
One number for each entry, in %.

chemical-string | remaining at 0.5 h, 500 µM / %
Nc1ncnc2c1ncn2[C@@H]1C=C(CO)[C@@H](O)[C@H]1O | 0

Kindly consider the entry below.
Record lookup: for Adenosine deaminase (Bos taurus, UniProt P56658), what remaining at 0.5 h, 500 µM belongs to `Nc1nc(F)nc2c1ncn2[C@@H]1C=C(CO)[C@@H](O)[C@H]1O` ? 100
